Numbers sourced from patent US20240417405A1.

# Tested on: KO-52 cells
# ASSAY_PROCEDURE: Proliferation assay, spheroid-like growth, KO-52 (MLL wildtype control cell line)
# Type: cell-based, human
# STATED_CONDITIONS: Homo sapiens, 192 h, KO-52 control cells, 8 days, confluence as measure of spheroid size; read-out: spheroid assay_OneTime KO-52 IC50
# Experimental: The anti-proliferative effect of menin/MLL protein/protein interaction inhibitor test compounds was assessed in human leukemia cell lines. […] In order to assess the anti-proliferative effects, 200 MOLM14 cells, or 300 KO-52 cells were seeded in 200 μl media per well in 96-well round bottom, ultra-low attachment plates (Costar, catalogue number 7007). […] Spheroid like growth was measured in real-time by live-cell imaging (IncuCyteZOOM, Essenbio, 4× objective) acquiring images at day 8. […]

| MOLECULE | RELATION_SIGN | IC50 [µM] |
| --- | --- | --- |
| CO[C@H]1CCN([C@H]2C[C@@H](C(C(C)C)N3CC4(CCN(c5ncnnc5Oc5ccc(F)cc5-c5nnccc5C5CC5)C4)C3)C2)C1 (single isomer, unassigned) | = | 2.85 |
| CC(C)[C@H]([C@H]1C[C@@H](NC(=O)C2CC2)C1)N1CC2(CCN(c3ncnnc3Oc3ccc(F)cc3-c3nncn3C3CC3)C2)C1 (single isomer, unassigned) | > | 15 |
| CC(C)[C@@H]([C@H]1C[C@@H](N2CC[C@H](C(=O)N(C)C)C2)C1)N1CC2(CCN(c3ncnnc3Oc3ccc(F)cc3-c3cnncc3C3CC3)C2)C1 (single isomer, unassigned) | = | 8.89 |

====

# SYSTEM_NAME: menin/MLL (terbium chelate-labeled menin, FITC-MBM1 peptide) (Homo sapiens, UniProt O00255, T541A)
# Construct: Menin (a.a 1-610-6xhis tag)
# ASSAY_PROCEDURE: Menin/MLL homogenous time-resolved fluorescence (HTRF) assay
# Format: binding
# STATED_CONDITIONS: 30 min incubation
Catalogue of IC50 readings, one per entry.
PARAMETER: IC50 (nM)

| MOLECULE | VALUE_MEASURED |
| --- | --- |
| CC(C)C([C@H]1C[C@@H](Nc2nnc(N)s2)C1)N1CC2(CCN(c3ncnnc3Oc3ccc(F)cc3-c3cncnc3C3CC3)C2)C1 (single isomer, unassigned) [Compound 488] | 0.15 |
| CC(=O)N1CC2(C1)CN([C@H]1C[C@H]([C@@H](C(C)C)N3CC4(CCN(c5ncnnc5Oc5ccc(F)cc5-c5cncnc5C5CC5)C4)C3)C1)C2 (single isomer, unassigned) [Compound 171] | 0.1 |
| Cc1ncc(-c2cc(F)ccc2Oc2nncnc2N2CCC3(C2)CN([C@@H](C(C)C)[C@H]2C[C@@H](N4CC[C@H](C(=O)N(C)C)C4)C2)C3)c(C2CC2)n1 [Compound 383] | 0.04 |

====

# SYSTEM_NAME: menin/MLL (terbium chelate-labeled menin, FITC-MBM1 peptide) (Homo sapiens, UniProt O00255, T541A)
# Construct: Menin (a.a 1-610-6xhis tag)
# Sequence (O00255 with tags, fused parts or gaps T541A): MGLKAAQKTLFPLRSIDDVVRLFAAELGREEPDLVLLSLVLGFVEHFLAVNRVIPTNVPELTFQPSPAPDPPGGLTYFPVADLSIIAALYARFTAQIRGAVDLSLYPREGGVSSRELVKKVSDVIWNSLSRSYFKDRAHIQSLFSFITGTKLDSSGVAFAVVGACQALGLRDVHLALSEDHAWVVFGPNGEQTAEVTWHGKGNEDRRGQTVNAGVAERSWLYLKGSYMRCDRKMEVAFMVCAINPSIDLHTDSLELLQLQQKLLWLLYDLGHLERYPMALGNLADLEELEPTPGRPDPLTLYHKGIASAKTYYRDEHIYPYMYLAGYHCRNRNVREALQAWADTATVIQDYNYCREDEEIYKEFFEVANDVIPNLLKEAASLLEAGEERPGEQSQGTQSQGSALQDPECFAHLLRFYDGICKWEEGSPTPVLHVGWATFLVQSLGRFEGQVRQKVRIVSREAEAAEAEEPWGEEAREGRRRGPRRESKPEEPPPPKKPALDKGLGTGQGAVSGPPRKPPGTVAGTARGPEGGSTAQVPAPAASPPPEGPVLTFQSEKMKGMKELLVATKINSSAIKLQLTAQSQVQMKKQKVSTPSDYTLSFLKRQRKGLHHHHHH
# ASSAY_PROCEDURE: Menin/MLL homogenous time-resolved fluorescence (HTRF) assay
# STATED_CONDITIONS: 30 min incubation
PARAMETER: IC50 (nM)

| COMPOUND | PARAMETER | SCALE_UNIT | VALUE_MEASURED |
| --- | --- | --- | --- |
| CC(C)[C@@H]([C@H]1C[C@@H](N2CCC3(CCCO3)C2)C1)N1CC2(CCN(c3ncnnc3Oc3ccc(F)cc3-c3nnccc3C3CC3)C2)C1 (single isomer, unassigned) | IC50 | nM | 0.2 |
| CC(C)[C@H]([C@H]1C[C@@H](NC(=O)C2(F)CC2)C1)N1CC2(CCN(c3ncnnc3Oc3ccc(F)cc3-c3nnccc3C3CC3)C2)C1 (single isomer, unassigned) | IC50 | nM | 0.2 |
| CC(=O)N[C@H]1C[C@@H]([C@@H](C(C)C)N2CC3(CCN(c4ncnnc4Oc4ccc(F)cc4-c4cnccc4C4CC4)C3)C2)C1 (single isomer, unassigned) | IC50 | nM | 0.2 |
